Reference source: patent US12280141B2

Experiment: Dexamethasone in eye tissues and fluids after one 25 μL depot instillation
Conditions: female, New Zealand White, rabbit, conjunctiva, topical, 25 μL, Dexamethasone, Conjunctiva Average (±SD), Day 3; one 25 μL instillation
test_readout: concentration at 3 day (ng/g)

> print(dat)
                            compound.string  units.label  value
1  C[C@@H]1C[C@H]2[C@@H]3CCC4=CC(=O)C=C[C@]4(C)[C@@]3(F)[C@@H](O)C[C@]2(C)[C@@]1(O)C(=O)CO         ng/g    372

* * *

Test: Dexamethasone in eye tissues and fluids after one 25 μL depot instillation
Details: female, New Zealand White, rabbit, conjunctiva, topical, 25 μL, Dexamethasone, Conjunctiva Average (±SD), Hr 8; one 25 μL instillation
test_readout: concentration at 8 h (ng/g)

> print(dat)
                            compound.string          test.readout  units.label  value
1  C[C@@H]1C[C@H]2[C@@H]3CCC4=CC(=O)C=C[C@]4(C)[C@@]3(F)[C@@H](O)C[C@]2(C)[C@@]1(O)C(=O)CO  concentration at 8 h         ng/g   1660

* * *

Assay: Dexamethasone in eye tissues and fluids after one 25 μL depot instillation
Conditions: female, New Zealand White, rabbit, aqueous humor, topical, 25 μL, Dexamethasone, Aqueous Humor Average (±SD), Hr 24; one 25 μL instillation of 10% dexamethasone depot
test_readout: concentration at 24 h (ng/mL)

> print(dat)
                            compound.string           test.readout  units.label  value
1  C[C@@H]1C[C@H]2[C@@H]3CCC4=CC(=O)C=C[C@]4(C)[C@@]3(F)[C@@H](O)C[C@]2(C)[C@@]1(O)C(=O)CO  concentration at 24 h        ng/mL   2.47

* * *

Assay: Dexamethasone in eye tissues and fluids after one 25 μL depot instillation
Conditions: female, New Zealand White, rabbit, iris/ciliary body, topical, 25 μL, Dexamethasone, Iris/Ciliary Body Average (±SD), Hr 24; one 25 μL instillation
test_readout: concentration at 24 h (ng/g)

> print(dat)
                            compound.string  units.label  value
1  C[C@@H]1C[C@H]2[C@@H]3CCC4=CC(=O)C=C[C@]4(C)[C@@]3(F)[C@@H](O)C[C@]2(C)[C@@]1(O)C(=O)CO         ng/g   12.3

* * *

Test: Dexamethasone in eye tissues and fluids after one 25 μL depot instillation
Details: female, New Zealand White, rabbit, cornea, topical, 25 μL, Dexamethasone, Cornea Average (±SD), Day 3; one 25 μL instillation
test_readout: concentration at 3 day

> print(dat)
                            compound.string            test.readout     value
1  C[C@@H]1C[C@H]2[C@@H]3CCC4=CC(=O)C=C[C@]4(C)[C@@]3(F)[C@@H](O)C[C@]2(C)[C@@]1(O)C(=O)CO  concentration at 3 day  176 ng/g

* * *

Test: Dexamethasone in eye tissues and fluids after one 25 μL depot instillation
Details: female, New Zealand White, rabbit, iris/ciliary body homogenate, topical, 25 μL, Dexamethasone, Iris/Ciliary Body Homog., Hr 8; per eye; one 25 μL instillation; LOQ 0.2 ng/mL
test_readout: concentration at 8 h (µg/mL)

> print(dat)
                            compound.string   value
1  C[C@@H]1C[C@H]2[C@@H]3CCC4=CC(=O)C=C[C@]4(C)[C@@]3(F)[C@@H](O)C[C@]2(C)[C@@]1(O)C(=O)CO  0.0302
